# Tested on: RPMI-8226 leukemia
# Assay Name: NCI-60 one-dose screen, 48 h (100 = growth as untreated, 0 = no growth, -100 = all killed)
# Test Parameters: 10 µM unless noted
The panel holds about 83,000 compounds, 20% with a hit somewhere; the sample as a whole holds those more often.
Quantity Kind: growth (%)
Give just the number in %; leave the unit off.

Completed entries (count: 4):
Molecule	Units Of Measure	growth
O=C(CCl)NCCNc1nccc(Nc2ccc(S(=O)(=O)Nc3ccccn3)cc2)n1	%	14.8
COc1cc(/C=C2\CCCC3=C2NC(C)=NC3c2cc(OC)c(OC)c(OC)c2)cc(OC)c1OC (stereo not given)	%	-15.1
O=C(Nc1ccccc1)OCC1OCOC(COC(=O)Nc2ccccc2)C1OC(=O)Nc1ccccc1 (stereo not given)	%	40.1
COc1cc(CCn2nnc3c(NCCCCO)ncnc32)cc(OC)c1	%	95.7

Next molecule, growth to be filled in.
Input COc1cc2nc(N3CCC[C@@H](NC4=CC(=O)c5ccccc5C4=O)C3)nc(N)c2cc1OC , output reported growth. -44.1

---

# System: MOLT-4 leukemia
# Assay Name: NCI-60 one-dose screen, 48 h (100 = growth as untreated, 0 = no growth, -100 = all killed)
# Test Parameters: 10 µM unless noted
Compounds without any hit were thinned out: in the full panel of roughly 83,000, 20% have a hit.
Quantity Kind: growth (%)
Give just the number in %; leave the unit off.

Completed entries (count: 10):
Molecular String	Quantity Kind	Experimental Result
Cc1ccnc2nc(C(=O)OCC(=O)Nc3ccc(-c4ccccc4)cc3)nn12	growth	65
CC1=CNNc2c3ncnc-3ncn21	growth	91.9
Nc1nc(Cl)c2c(ncn2Cc2ccc(CCl)cc2)n1	growth	103
O=C(CNC1CCCCC1)Nc1ccc(-c2nc3ccccc3s2)cc1	growth	54.1
COc1cccc(-c2nc3sccn3c2-c2ccnc(NCCNS(=O)(=O)c3ccccc3)n2)c1	growth	43.2
COc1cc(/C=C\c2cc(OC)c(OC)c(OC)c2)cc(N/C=C\C(=O)c2c[nH]c3ccccc23)c1OC	growth	-29
COc1ccc(Cl)cc1NC(N)=S	growth	99.7
O=c1oc2cc(OS(=O)(=O)c3ccc(F)cc3)ccc2c2c1CCCCC2	growth	63.8
C=C1C(=O)O[C@H]2[C@H](O)[C@@H](C)CCC/C(C)=C/CC[C@@]3(C)O[C@@H]3C[C@@H]12	growth	78.6
Clc1nc(Cl)c2ncn(C/C=C/Cn3cnc4c(Cl)nc(Cl)nc43)c2n1	growth	80.8

Next molecule, growth to be filled in.
Input CCCOC(=O)C1(O)CCCC1 , output reported growth. 93.1

---

# Tested on: SN12C renal
# Assay Name: NCI-60 one-dose screen, 48 h (100 = growth as untreated, 0 = no growth, -100 = all killed)
# Test Parameters: 10 µM unless noted
Compounds without any hit were thinned out: in the full panel of roughly 83,000, 20% have a hit.
# key: entry, value: growth
Give just the number in %; leave the unit off.

Completed entries (count: 4):
Molecule	growth, %
NC(=O)NC(=O)/C=C/C(=O)OCCCl	104
COc1ccc2c(c1)C=CC(C#N)N2C(=O)c1ccccc1 (stereo not given)	38.4
COc1cc(/C=C\c2cc(OC)c(OC)c(OC)c2)cc(N/C=C\C(=O)c2c[nH]c3ccccc23)c1OC	70.8
CC/C=C\C[C@H](O)C/C=C1/C(=O)C(Cl)=C[C@@H]1C/C=C\CCCC(=O)O	22.8

Next molecule, growth to be filled in.
Input COc1ccc(-c2nc3sccn3c2-c2ccnc(NCCNS(=O)(=O)c3ccc(C(F)(F)F)cc3)n2)cc1 , output reported growth. 17.3
